System: cytotoxicity, CellTiter-Glo ATP luminescence
Method summary: loss of cell viability by ATP content – CellTiter-Glo, cytotoxicity control, dose response (AID 1259333)
Calls of active or inactive are those of the source. No rule for the calls is given here; tested in parental BL2 cells.
Field 'call' accepts 1 (active), 0 (inactive)

Below are worked cases with known answers.
{"columns": ["Compound", "Label class"],
 "data": [
  ["COc1ccc(S(=O)(=O)Nc2ccc3c(c2)C(=O)N([C@H](C)CO)C[C@H](C)[C@@H](CN(C)Cc2ccc(C(F)(F)F)cc2)OCCCC[C@@H](C)O3)cc1", 1],
  ["Cc1ccc(CN2CC(C(=O)Nc3ncc(C)s3)CC2=O)cc1 (stereo not given)", 0],
  ["CCN(CC)c1ccc(C(NC(=O)C(C)C)c2ccc3cccnc3c2O)cc1 (stereo not given)", 1],
  ["CN1C(=O)/C(=N\\OC(=O)c2cccc3ccccc23)c2ccccc21", 1]
]}

Attention now shifts to the item below.
**Q:** Hi, sorry to bother you, what did the test record for Cc1c(CCOC(=O)CC23CC4CC(CC(C)(C4)C2)C3)sc[n+]1CC(=O)c1ccccc1 ?
**A:** 1

====

Test system: cytotoxicity, CellTiter-Glo ATP luminescence
Method summary: loss of cell viability by ATP content – CellTiter-Glo, cytotoxicity control, dose response (AID 1259333)
Activity calls are given as the source filed them. How the calls were made is not given here; tested in parental BL2 cells.
Field 'call' accepts active, inactive

Below are worked cases with known answers.
{"columns": ["Compound", "Label class"],
 "data": [
  ["C[C@H](CO)N1C[C@H](C)[C@H](CN(C)CC2CCCCC2)OCCCC[C@H](C)Oc2ccc(NC(=O)Nc3ccc(C(F)(F)F)cc3)cc2C1=O", "inactive"],
  ["C[C@@H]1CN([C@H](C)CO)C(=O)c2cc(NC(=O)Nc3cccc4ccccc34)ccc2O[C@@H](C)CCCCO[C@H]1CN(C)Cc1ccc(C(F)(F)F)cc1", "inactive"],
  ["CC(C)CCCCCCCCCCCCC(=O)NCC(=O)NC1C(O)C(O)C(Nc2ncnc3nc[nH]c23)OC1C(O)CO (stereo not drawn)", "active"],
  ["Cn1cc(C2=C(c3cn(CCCSC(=N)N)c4ccccc34)C(=O)NC2=O)c2ccccc21", "active"],
  ["N#C[C@@H]1[C@H](c2ccc(C#CC3CCCC3)cc2)[C@H](CO)N1C(=O)Cc1ccccn1", "inactive"]
]}

**Q:** Hi, sorry to bother you, what did the test record for Nc1cccc2nc3ccccc3cc12 ?
**A:** active

**Q:** Hi, sorry to bother you, what did the test record for CC1=C(C#N)c2nc(N)c(C#N)c(C)c2/C1=C\c1ccccc1 ?
**A:** active

**Q:** Hi, sorry to bother you, what did the test record for Cn1cnc(CCNC(=O)C[C@@H]2CC[C@@H]3[C@H](COC[C@@H](O)CN3C(=O)Nc3ccc(C(F)(F)F)cc3)O2)c1 ?
**A:** inactive

**Q:** Hi, sorry to bother you, what did the test record for C[C@@H]1CN([C@H](C)CO)C(=O)c2c(c3ccccc3n2C)-c2ccccc2CO[C@H]1CN(C)C(=O)c1cc(Cl)cc(Cl)c1 ?
**A:** inactive

**Q:** Hi, sorry to bother you, what did the test record for Cc1noc(C)c1S(=O)(=O)Nc1ccc2c(c1)C(=O)N([C@@H](C)CO)C[C@H](C)[C@@H](CN(C)C(=O)Nc1cccc3ccccc13)OCCCC[C@H](C)O2 ?
**A:** inactive

**Q:** Hi, sorry to bother you, what did the test record for O=C1NC2c3c(I)sc(I)c3C(=O)C2O1 (stereo not drawn) ?
**A:** active

====

System: cytotoxicity, CellTiter-Glo ATP luminescence
Method summary: loss of cell viability by ATP content – CellTiter-Glo, cytotoxicity control, dose response (AID 1259333)
Active and inactive are the calls of the source. The rule behind the calls is not given here; tested in parental BL2 cells.
Field 'call' accepts active, inactive

Below are worked cases with known answers.
{"columns": ["Compound", "Label class"],
 "data": [
  ["CCN(CC)CCCNc1nc2ccccc2c2[nH]c3ccc(OC)cc3c12", "active"],
  ["N#C[C@H]1[C@@H](c2ccc(C#CC3CCCCC3)cc2)[C@@H](CO)N1C(=O)Nc1ccc(F)cc1", "inactive"],
  ["Cc1ccc(OCCn2cnc3c(N)ncnc32)cc1", "inactive"],
  ["COc1c(-c2coc3cc4c(cc3c2=O)CC(O)C(C)(C)O4)ccc2c1C=CC(C)(C)O2 (stereo not drawn)", "inactive"],
  ["C[C@@H]1CN([C@H](C)CO)C(=O)c2ccccc2-c2ccccc2CO[C@@H]1CN(C)Cc1ccccc1C(F)(F)F", "active"]
]}

**Q:** Hi, sorry to bother you, what did the test record for COc1ccc(CC2C(=O)NC(C)C(=O)N(C)C3Cc4ccc(cc4)Oc4cc(ccc4O)CC(C(=O)NC(C)C(=O)NC(C)C(=O)N2C)N(C)C3=O)cc1 (stereo not drawn) ?
**A:** active

**Q:** Hi, sorry to bother you, what did the test record for CCCC(C)Sc1nc2c([nH]1)c(=S)n(C)c(=O)n2C (stereo not drawn) ?
**A:** active

**Q:** Hi, sorry to bother you, what did the test record for CC(=O)OCC12CC(OC(=O)CC(C)C)C(C)=CC1OC1C(O)C(OC(C)=O)C2(C)C12CO2 (stereo not drawn) ?
**A:** active

**Q:** Hi, sorry to bother you, what did the test record for COCC(C)n1c(C)cc(C(=O)COC(=O)c2cccn2C)c1C (stereo not drawn) ?
**A:** inactive

**Q:** Hi, sorry to bother you, what did the test record for CN(C)C(=S)SSC(=S)N(C)C ?
**A:** active

**Q:** Hi, sorry to bother you, what did the test record for CC1=CC(C)(C)N=C(Nc2nc(C)c3cc(C)cc(C)c3n2)N1 ?
**A:** active

**Q:** Hi, sorry to bother you, what did the test record for COc1cccc(NC(=O)N2CC(=O)N3[C@H](CO)[C@@H](c4ccc(C#CCC5CCCC5)cc4)[C@H]3C2)c1 ?
**A:** active

**Q:** Hi, sorry to bother you, what did the test record for CC1=CC2OC3CC4OC(=O)C=CC=CC(=O)OCCC(C)C(O)C(=O)OCC2(CC1O)C4(C)C31CO1 (stereo not drawn) ?
**A:** active

**Q:** Hi, sorry to bother you, what did the test record for C=C1CC(Cn2cc(Br)c(=O)[nH]c2=O)(c2ccc(-c3ccccc3)cc2)OC1=O (stereo not drawn) ?
**A:** active

**Q:** Hi, sorry to bother you, what did the test record for O=C(Nc1ccc([N+](=O)[O-])cc1Cl)c1cc(Cl)ccc1O ?
**A:** inactive

**Q:** Hi, sorry to bother you, what did the test record for N#Cc1cccc(-c2ccc(C3[C@H]4CNC[C@@H]3N4Cc3ccc4c(c3)OCO4)cc2)c1 (stereo partly drawn) ?
**A:** inactive

**Q:** Hi, sorry to bother you, what did the test record for C[C@@H]1CCCCO[C@H](CN(C)Cc2ccc(C(F)(F)F)cc2)[C@@H](C)CN([C@@H](C)CO)C(=O)c2cc(NC(=O)Nc3cccc4ccccc34)ccc2O1 ?
**A:** active

**Q:** Hi, sorry to bother you, what did the test record for O=C(Nc1ccccc1F)N1CCCCN2[C@H](CO)[C@H](c3ccc(/C=C/c4ccccc4)cc3)[C@H]2C1 ?
**A:** inactive

====

# maps each entry to its AC50
Test system: cytotoxicity, CellTiter-Glo ATP luminescence
Method summary: loss of cell viability by ATP content – CellTiter-Glo, cytotoxicity control, dose response (AID 1259333)

{"columns": ["Compound", "Readout type", "Assay result"],
 "data": [
  ["COc1ccc(CN2CC3(CN(C(=O)Cc4ccccc4)C3)c3c([nH]c4cc(OC)ccc34)[C@@H]2CO)cc1", "AC50", "9.43 µM"],
  ["CC[N+]1(C)CCC(O)(c2ccc(OC)cc2)C(C(=O)c2ccc(OC)cc2)C1 (stereo not given)", "AC50", "5.1 µM"],
  ["CC(C)(C)OC(=O)CC(S(=O)(=O)c1ccccc1)S(=O)(=O)c1ccccc1", "AC50", "6.37 µM"]
]}

# compound CCS(=O)(=O)N1Cc2ccccc2CC1C(=O)Nc1nc2ccccc2s1 (stereo not given) ; its AC50 = 5.74 µM

# compound CC(=O)NCCCC(=O)NC(CCC(=O)OCc1ccccc1)C(=O)OCc1ccccc1 (stereo not given) ; its AC50 = 9.31 µM

====

System: cytotoxicity, CellTiter-Glo ATP luminescence
Method summary: loss of cell viability by ATP content – CellTiter-Glo, cytotoxicity control, dose response (AID 1259333)
The source made the active and inactive calls. No rule for the calls is given here; tested in parental BL2 cells.
Field 'call' accepts true (active), false (inactive)

Below are worked cases with known answers.
{"columns": ["Compound", "Label class"],
 "data": [
  ["COc1ccc(-c2cc(-c3ccccc3)c(C#N)c(S(C)=O)n2)cc1 (stereo not given)", "true"],
  ["COCC(=O)N1[C@H](C#N)[C@H](c2ccc(C#Cc3ccccc3F)cc2)[C@H]1CO", "true"],
  ["Clc1ccc(COC(Cn2ccnc2)c2ccc(Cl)cc2Cl)c(Cl)c1 (stereo not given)", "true"]
]}

**Q:** Hi, sorry to bother you, what did the test record for OC(c1cc(-c2cccc(Cl)c2)nc2ccccc12)C1CCCCN1 (stereo not given) ?
**A:** true

**Q:** Hi, sorry to bother you, what did the test record for Cc1ccsc1C(=O)OCC(=O)c1cc(C)n(CC2CCCO2)c1C (stereo not given) ?
**A:** false

src = PubChem BioAssay AID1259333
